Exercise: for every item that follows, state its recorded IC50.
tested on: MDA-MB-231 breast cancer cells; details: 72 h
Square brackets hold non-standard residues; d marks the D form. Peptide text beside a SMILES is read from it.
Field format: number, assumed µM, no unit text.

# IC50 lookup, item C[C@@H](O)[C@H](NC(=O)[C@H](Cc1ccccc1)NC(=O)[C@@H](NC(=O)[C@H](CCCCN)NC(=O)[C@@H](Cc1c[nH]c2ccccc12)NC(=O)[C@H](Cc1ccc(O)cc1)NC(=O)[C@H](Cc1ccc(O)cc1)NC(=O)[C@H](N)Cc1ccccc1)[C@@H](C)O)C(N)=O [D101] (H-[dF]YY[dW]KTFT-NH2) 1400

Look at this compound and give its reported IC50. C[C@@H](O)[C@H](NC(=O)[C@H](Cc1ccccc1)NC(=O)[C@@H](NC(=O)[C@H](CCCCN)NC(=O)[C@@H](Cc1c[nH]c2ccccc12)NC(=O)[C@H](Cc1ccccc1)NC(=O)[C@H](Cc1ccccc1)NC(=O)[C@H](N)Cc1ccccc1)[C@@H](C)O)C(N)=O [BIM-23052, D-Phe-Phe-Phe-D-Trp-Lys-Thr-Phe-Thr-NH2] (H-[dF]FF[dW]KTFT-NH2) 335

====

test system: MCF-7 breast cancer cells; conditions: 2 h
Square brackets hold non-standard residues; d marks the D form. Peptide text beside a SMILES is read from it.
Please go through the items and note down their Selectivity index SI, MCF-7.
Reply with the value as a number alone.

Please report the recorded Selectivity index SI, MCF-7 for C[C@@H](O)[C@H](NC(=O)[C@H](Cc1ccccc1)NC(=O)[C@@H](NC(=O)[C@H](CCCCN)NC(=O)[C@@H](Cc1c[nH]c2ccccc12)NC(=O)[C@H](Cc1ccc(O)cc1)NC(=O)[C@H](Cc1ccc(O)cc1)NC(=O)[C@H](N)Cc1ccccc1)[C@@H](C)O)C(N)=O [D101] (H-[dF]YY[dW]KTFT-NH2) . 0.84

What value of measured Selectivity index SI, MCF-7 is listed for C[C@@H](O)[C@H](NC(=O)[C@H](Cc1ccccc1)NC(=O)[C@@H](NC(=O)[C@H](CCCCN)NC(=O)[C@@H](Cc1c[nH]c2ccccc12)NC(=O)[C@H](Cc1ccccc1)NC(=O)[C@H](Cc1ccccc1)NC(=O)[C@H](N)Cc1ccccc1)[C@@H](C)O)C(N)=O [BIM-23052, D-Phe-Phe-Phe-D-Trp-Lys-Thr-Phe-Thr-NH2] (H-[dF]FF[dW]KTFT-NH2) ? 1.7

Which value of Selectivity index SI, MCF-7 has been reported for C[C@@H](O)[C@H](NC(=O)[C@H](Cc1ccc(O)cc1)NC(=O)[C@@H](NC(=O)[C@H](CCCCN)NC(=O)[C@@H](Cc1c[nH]c2ccccc12)NC(=O)[C@H](Cc1ccccc1)NC(=O)[C@H](Cc1ccccc1)NC(=O)[C@H](N)Cc1ccccc1)[C@@H](C)O)C(N)=O [DD8] (H-[dF]FF[dW]KTYT-NH2) in the records? 0.69

Recorded Selectivity index SI, MCF-7 of C[C@@H](O)[C@H](NC(=O)[C@H](Cc1ccc(O)cc1)NC(=O)[C@@H](NC(=O)[C@H](CCCCN)NC(=O)[C@@H](Cc1c[nH]c2ccccc12)NC(=O)[C@H](Cc1ccc(O)cc1)NC(=O)[C@H](Cc1ccc(O)cc1)NC(=O)[C@H](N)Cc1ccc(O)cc1)[C@@H](C)O)C(N)=O [D91] (H-[dY]YY[dW]KTYT-NH2) , please. 1.02

Dear colleague, I am looking for the recorded Selectivity index SI, MCF-7 of the following molecule: C[C@@H](O)[C@H](NC(=O)[C@H](Cc1ccc(O)cc1)NC(=O)[C@@H](NC(=O)[C@H](CCCCN)NC(=O)[C@@H](Cc1c[nH]c2ccccc12)NC(=O)[C@H](Cc1ccc(O)cc1)NC(=O)[C@H](Cc1ccc(O)cc1)NC(=O)[C@H](N)Cc1ccccc1)[C@@H](C)O)C(N)=O [D61] (H-[dF]YY[dW]KTYT-NH2) 1.3
